- Tested on: MS2 coat protein
- testSummary: apparent Kd, MS2 coat protein; higher = weaker binding; RNA-MaP array; tryptophan 2.4 mM where present
- conditionSummary: ligand present: tryptophan; designed as: OFF switch for tryptophan
// apparent Kd lookup, one value per entry
Provide only the numeric value, understood in nM.

Take a look at these entries with their results.
# seq, testTarget, apparent Kd, nM
records = [
    ("GGCACAUAGUCGGCCGCCACUAGAAUAAGAUGGAAUAACAUGAGGAUCACCCAUGUAAAAGGGACUAGGACCGGGACUAUGUGCC", "MS2 coat protein", 11.9),
    ("AACGAGUGGCGGCCAUUGGGUGAUCCUCUACGAGGACCGGUACGGCCGCCACUCGAUAACAUGAGGAUCACCCAUGUGCCGAUAA", "MS2 coat protein", 133),
    ("GUUGGACUUUCGGCCGCCACUGAGAGAGUCAUGUGAACAUGAGGAUCACCCAUGUAAUAUAUAUACAGGACCGGGAGGGUUGUAA", "MS2 coat protein", 9.9),
    ("GGAGUAGGAAACUAUUCCAAUCCUCGUGAACGAGGACCGGUACGGCCGCCACUCGAUAAAUAAAUACAUGAGGAUCACCCAUGUU", "MS2 coat protein", 118),
    ("GUGCCGCAUUCACAUGAGGAUCACCCAUGUCGAGGACCGGUACGGCCGCCACUCGACGUGCUUACAGGUCCUUUAAGGCCCAAUA", "MS2 coat protein", 43.8),
    ("CUCAUCCACGCGGCCGCCACUAUAUUGUGGUGUGAAUGUGACGUAUUACAUGAGGAUCACCCAUGUAGGACCGGGCGUGGAUGAG", "MS2 coat protein", 168),
    ("ACUUCGCAUAGGAAAACUAUGUGAAGAAAUCGAGGACCGGUACGGCCGCCACUCGUCCUCAACAUGAGGAUCACCCAUGUAAUAA", "MS2 coat protein", 37.8),
    ("CGUAUUGGAAACAGUACGAGUGAUCCGGUCCGAGGACCGGUACGGCCGCCACUCGAAAUUAAUAAACAUGAGGAUCACCCAUGUA", "MS2 coat protein", 26.8),
    ("UCGUGCAGAGCGGCCGCCACUGUAUUGCGUGCGGAUGACGGAACAUGAGGAUCACCCAUGUUGUUUAGGACCGGGCUUGCCACCA", "MS2 coat protein", 13.9),
    ("GAUUUAACAAAAGUUAGAUCAGUGGGUGAACGAGGACCGGUACGGCCGCCACUCGGACAUGAGGAUCACCCAUGUCCAUGUGAAA", "MS2 coat protein", 43.1),
]

Now for the sequence whose apparent Kd we want.
**Query** Fill in the blank: the reported apparent Kd of ACCGAAAGCUCACAUGAGGAUCACCCAUGUCGAGGACCGGUACGGCCGCCACUCGGCAAAUAUAAGGGUGGACGCGUCUCUGCGU is ____.
**Result** 79.8

###

- Test system: MS2 coat protein
- testSummary: apparent Kd, MS2 coat protein; higher = weaker binding; RNA-MaP array; FMN 200 µM where present
- conditionSummary: ligand present: flavin mononucleotide; designed as: OFF switch for flavin mononucleotide
// apparent Kd lookup, one value per entry
Provide only the numeric value, understood in nM.

Take a look at these entries with their results.
# seq, readoutName, endpointUnit, measValue
measured = [
    ("GGUACUCAAAGAGUACUGAGUCGAACAUGAGGAUCACCCAUGUAGGAUAUGCGAGUUUUGAAUUUGCAGAAGGACAUUUUUAGC", "apparent Kd", "nM", 9.59),
    ("CUCGUGUAAGGAUAUGCGGGCGGGCGCGUUUGUGUUUGUUUGUAGAAGGUACAUGAGGAUCACCCAUGUACUGG", "apparent Kd", "nM", 57.4),
]

**Query** Fill in the blank: the reported apparent Kd of UUUAUGAAGAUUCGUCAAUACAGUUAGGAUAUGAGAGACAUGAGGAUCACCCAUGUGCAUGUUGAUUAGAAGGAACAAUUAUCU is ____.
**Result** 16.9

**Query** Do the same for UUUUUUCCUCAUGUACAUGAGGAACAUGAGGAUCACCCAUGUAGAAGGAUUUCCCUUAAAUUAAGAUAGGAUAUACAUAUUUUU please
**Result** 61.6

**Query** Do the same for CCUCGACAUGAGGAUCACCCAUGUCAGGAUAUUGUGUUUCGGGUUUUUUACCUUUAGGCAAGAAGGGAUGUGUG please
**Result** 22.4

**Query** Do the same for ACAUGAGGAUCACCCAUGUUAUCCGGGACUUCAAUUGUAUCUAGAAGGCUGUCUGCUUGUUAGUCAGAGGAUAUAGAUUCAAAU please
**Result** 11.1

**Query** Do the same for CUGGUGUUAGGAUAUUCGAGGCUGCCUCGGAGACGAGGGUAGGAGAAGGGACAUGAGGAUCACCCAUGUGCUCC please
**Result** 37.6

**Query** Do the same for ACUUGUUACUUAUUCAUUGAUUUGUAGGAUAUACGUACAUGAGGAUCACCCAUGUUACAUGUUAUGUAGAAGGACAUCUAAUUU please
**Result** 12.6

**Query** Do the same for AUCCUGCGAGGAUAUACAUAAUUUUUUUCAUUUGGUUGCGAACAUGAGGAUCACCCAUGUAGAAGGUGCUUCAC please
**Result** 62.5

**Query** Do the same for GGGCAAUUAGGAUAUACAUGAGGAUCACCCAUGUGGAAGCCCGGACAGGUAAUCCACUGUAGAAGGGAUUGCCA please
**Result** 13.3

**Query** Do the same for AGACUCUCUGGAGGAUAUCAUAGUCGUUGACUAUGAGAAGGUUAGCUAUCUUACAUGAGGAUCACCCAUGUGAUCUCUCUCGAG please
**Result** 14.6

**Query** Do the same for ACUAUACGAGGAUAUACUGUCGGGCCUCGGGCAUACAUACGACAUGAGGAUCACCCAUGUAGAAGGCGUUUACU please
**Result** 61.6

**Query** Do the same for UAAUUAAAUGUGAGGAUAUGCUGGUCCUUGGAUCAGCAGAAGGCACAUGAGGAUCACCCAUGUAAUUUAUUUAU please
**Result** 285

**Query** Do the same for CGGUGACGUGUAGGAUAUGGCGCUGGGUUUUGCCCAGAAGGACAUGAGGAUCACCCAUGUGGUAGAGGGCUGGCGGCCGCCCGU please
**Result** 21.6

**Query** Do the same for GUAGCUGCAGGAUAUCUAUCUUCUGACAUGAGGAUCACCCAUGUACUUACUUGGCUCAGUGGAGAAGGGCAGCGUU please
**Result** 84.2

**Query** Do the same for GUAUUACAUGAGGAUCACCCAUGUGAGGAUAUCGAUGUAACUAGCAGCGUGCGGGACUCGAGAAGGCACUUGGA please
**Result** 142

**Query** Do the same for GAGCUAUGAGGAUAUGCAUAUAUACGGAUUCGUGUAGUACUACAUGAGGAUCACCCAUGUAGAAGGCGUGGCUG please
**Result** 16.7

**Query** Do the same for AAGAAGUGAGGAUAUACGCGAACAAAAAAAAAAAAGAAAGCGUAGAAGGCACAUGAGGAUCACCCAUGUCAAAA please
**Result** 27.3
